target: human amylin receptor (hAmyR3) (Homo sapiens, UniProt O60896+P30988); construct: host or cells: BHK cells (Hollex-1 line: human calcitonin receptor (a) + CRE-Luc), further transfected with human RAMP3; assay: Human amylin receptor in vitro potency assay (CRE-luciferase reporter, BHK cells); type: cell-based; conditions: Table 4a; BHK hAmyR3/CRE-Luc cells, 3 hours; read-out: Human AmyR3 potency [EC50 (pM)];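 note: BHK cells expressing human calcitonin receptor plus RAMP3 (amylin-3 receptor) with a CRE-luciferase reporter, agonist activity read as luminescence from cAMP-driven transcription, 7-point serial dilutions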
Sequence (P30988 25-474): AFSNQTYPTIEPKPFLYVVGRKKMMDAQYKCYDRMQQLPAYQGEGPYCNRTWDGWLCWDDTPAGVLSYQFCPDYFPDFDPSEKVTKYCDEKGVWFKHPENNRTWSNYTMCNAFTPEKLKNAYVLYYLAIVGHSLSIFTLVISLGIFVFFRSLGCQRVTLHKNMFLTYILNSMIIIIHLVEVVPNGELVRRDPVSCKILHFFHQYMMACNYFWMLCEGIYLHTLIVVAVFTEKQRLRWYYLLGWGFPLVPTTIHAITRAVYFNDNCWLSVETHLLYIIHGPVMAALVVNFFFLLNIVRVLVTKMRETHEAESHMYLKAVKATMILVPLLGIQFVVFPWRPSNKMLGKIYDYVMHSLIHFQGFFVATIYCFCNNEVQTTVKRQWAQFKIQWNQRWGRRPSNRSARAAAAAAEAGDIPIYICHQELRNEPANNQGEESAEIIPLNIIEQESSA
Sequence (O60896 24-148): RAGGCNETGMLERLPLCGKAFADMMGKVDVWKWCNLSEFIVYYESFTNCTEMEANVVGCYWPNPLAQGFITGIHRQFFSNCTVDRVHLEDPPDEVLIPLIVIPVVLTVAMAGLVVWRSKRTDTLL
Starred links: 1 amine or outer side, 2 acyl side, 3 side chain; linkers in the order of their positions; H or OH if unused. Non-standard residues stand in square brackets, D forms with d. Groups on a side chain read outwards from the residue. *: point of attachment. Butyryl(4-SO2NHCO(CH2)16Tz) = O=C(CCCCCCCCCCCCCCCCc1nnn[nH]1)NS(=O)(=O)CCCC(=O)*; C20 diacid = O=C(O)CCCCCCCCCCCCCCCCCCC(=O)*; C18 diacid = O=C(O)CCCCCCCCCCCCCCCCC(=O)*; C16 diacid = O=C(O)CCCCCCCCCCCCCCC(=O)*; γGlu = O=C(O)[C@H](CCC(=O)[*:2])N[*:1]; Desaminohistidyl = O=C(CCc1c[nH]cn1)*; εLys = N[C@@H](CCCCN[*:1])C(=O)[*:2]; Trx = NC[C@H]1CC[C@H](C(=O)O)CC1; AEEA = NCCOCCOCC(=O)O; Aib = CC(C)(N)C(=O)O
Provide the recorded EC50 for the entries that follow.
Numbers only; they are read as pM.

**Query** # return recorded EC50 for input H-H[Aib]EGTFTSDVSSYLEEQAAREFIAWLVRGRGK(Butyryl(4-SO2NHCO(CH2)16Tz))GGGASELSTAALGRLSAELHELATLPRTETGSGSP-NH2 [Compound 0145]
**Result** 16.5

**Query** # return recorded EC50 for input H-H[Aib]EGTFTSDVSK([γGlu-γGlu-γGlu-γGlu-C20 diacid])YLEEQAAREFIEWLVRGAAEASELSTAALGRLSAELHELATLPRTETGSGSP-NH2 [Compound 0632]
**Result** 148

**Query** # return recorded EC50 for input H-H[Aib]EGTFTSDVSSYLEGQAAK([AEEA-AEEA-γGlu-C18 diacid])EFIAWLVRGRGGGGEASELSTAALGRLSAELHELATLPRTETGSGSP-NH2 [Compound 0040]
**Result** 7.7

**Query** # return recorded EC50 for input H[Aib]EGTFTSDVSSYLEEQAARK([AEEA-AEEA-γGlu-C18 diacid])FIAWLVRGRK([AEEA-AEEA-γGlu-C18 diacid])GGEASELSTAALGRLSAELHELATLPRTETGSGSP-NH2 [Compound 0116]
**Result** 21.7

**Query** # return recorded EC50 for input H-H[Aib]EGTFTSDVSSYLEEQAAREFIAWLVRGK([AEEA-AEEA-γGlu-C16 diacid])GGGGGEASELSTAALGRLSAELHELK([AEEA-AEEA-γGlu-C16 diacid])TLPRTETGSGSP-NH2 [Compound 0281]
**Result** 114

**Query** # return recorded EC50 for input H-H[Aib]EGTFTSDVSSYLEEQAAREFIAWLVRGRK([AEEA-AEEA-AEEA-AEEA-γGlu-C20 diacid])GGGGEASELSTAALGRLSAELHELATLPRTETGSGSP-NH2 [Compound 0663]
**Result** 12.6

**Query** # return recorded EC50 for input H-H[Aib]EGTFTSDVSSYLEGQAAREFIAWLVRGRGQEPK([AEEA-AEEA-γGlu-C18 diacid])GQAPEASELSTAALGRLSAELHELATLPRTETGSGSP-NH2 [Compound 0084]
**Result** 14

**Query** # return recorded EC50 for input H-H[Aib]EGTFTSDVSSYLEGQAAK([AEEA-AEEA-γGlu-C20 diacid])EFIAWLVRGRGQAPGQEPEASELSTAALGRLSAELHELATLPRTETGSGSP-NH2 [Compound 0157]
**Result** 18.4

**Query** # return recorded EC50 for input H-H[Aib]EGTFTSDVSSYLEGQAAREFIAWLVRGK([AEEA-AEEA-γGlu-C18 diacid])GEGEGEEASELSTAALGRLSAELHELATLPRTETGSGSP-NH2 [Compound 0009]
**Result** 49.5

**Query** # return recorded EC50 for input H-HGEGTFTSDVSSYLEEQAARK([AEEA-AEEA-γGlu-C16 diacid])FIEWLVRGK([AEEA-AEEA-γGlu-C16 diacid])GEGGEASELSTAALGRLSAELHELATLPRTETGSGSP-NH2 [Compound 0087]
**Result** 97.9

**Query** # return recorded EC50 for input H-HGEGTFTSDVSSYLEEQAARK([AEEA-AEEA-γGlu-C18 diacid])FIEWLVRGK([AEEA-AEEA-γGlu-C18 diacid])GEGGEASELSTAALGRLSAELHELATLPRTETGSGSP-NH2 [Compound 0090]
**Result** 70.9

**Query** # return recorded EC50 for input Desaminohistidyl-AEGTFTSDVSSYLEEQAAREFIAWLVRGRK([AEEA-AEEA-γGlu-C18 diacid])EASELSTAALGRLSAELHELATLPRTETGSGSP-NH2 [Compound 0051]
**Result** 19.5

**Query** # return recorded EC50 for input H-H[Aib]EGTFTSDVSSYLEEQAARK([AEEA-AEEA-γGlu-C18 diacid])FIEWLVRGRK([AEEA-AEEA-γGlu-C18 diacid])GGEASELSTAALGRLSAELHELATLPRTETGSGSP-NH2 [Compound 0129]
**Result** 23.5

**Query** # return recorded EC50 for input H-H[Aib]EGTFTSDK([AEEA-AEEA-γGlu-C16 diacid])SSYLEEQAAREFIAWLVRGRGGGGGEASELSTAALGRLSAELHELK([AEEA-AEEA-γGlu-C16 diacid])TLPRTETGSGSP-NH2 [Compound 0260]
**Result** 41.8

**Query** # return recorded EC50 for input H-H[Aib]EGTFTSDVSSYLEGQAAK([AEEA-AEEA-γGlu-C18 diacid])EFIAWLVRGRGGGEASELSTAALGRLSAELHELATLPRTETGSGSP-NH2 [Compound 0007]
**Result** 9.4

**Query** # return recorded EC50 for input H-H[Aib]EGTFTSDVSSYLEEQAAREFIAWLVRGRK([γGlu-C20 diacid])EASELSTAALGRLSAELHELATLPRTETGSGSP-NH2 [Compound 0141]
**Result** 13.2

**Query** # return recorded EC50 for input H-H[Aib]EGTFTSDVSSYLEGQAAREFIAWLVRGRGEGEGEK([AEEA-AEEA-γGlu-C18 diacid])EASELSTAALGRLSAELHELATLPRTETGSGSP-NH2 [Compound 0010]
**Result** 37

**Query** # return recorded EC50 for input H-H[Aib]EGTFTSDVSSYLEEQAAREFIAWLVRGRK([εLys-AEEA-AEEA-γGlu-C20 diacid])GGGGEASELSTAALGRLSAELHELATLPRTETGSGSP-NH2 [Compound 0552]
**Result** 6.9

**Query** # return recorded EC50 for input H-H[Aib]EGTFTSDVSSYLEEQAARK([AEEA-AEEA-γGlu-C20 diacid])FIEWLVRGASELSTAALGRLSAELHELATLPRTETGSGSP-NH2 [Compound 0581]
**Result** 26.4

**Query** # return recorded EC50 for input H-H[Aib]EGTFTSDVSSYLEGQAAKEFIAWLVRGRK([AEEA-AEEA-γGlu-C18 diacid])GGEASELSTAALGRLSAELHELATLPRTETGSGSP-NH2 [Compound 0042]
**Result** 10.8

**Query** # return recorded EC50 for input H-H[Aib]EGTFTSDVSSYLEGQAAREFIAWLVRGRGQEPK([AEEA-AEEA-γGlu-Trx-C20 diacid])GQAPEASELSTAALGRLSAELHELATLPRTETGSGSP-NH2 [Compound 0539]
**Result** 12.1

Data credit: patent US20230331803A1
